System: BRD2 (Homo sapiens (Human)) | Read-out: IC50 | Origin: multiple publications
Entries whose IC50 is below 100 nM take rule met; entries at or above 100 nM take rule not met.

{"COMPOUND": "Cc1cc(N2C(=O)c3nn(C(C)C)cc3C2c2ccc(Cl)cc2)cn(C)c1=O (centres unmarked)", "CLASSIFICATION": "rule met"}
{"COMPOUND": "Cc1cc(N2C(=O)c3ccn(C)c3C2c2ccc(Cl)c(F)c2)cn(C)c1=O (centres unmarked)", "CLASSIFICATION": "rule not met"}
{"COMPOUND": "Cc1cc(N2C(=O)c3c(C4CC4)nn(C)c3[C@H]2c2ccc(Cl)cc2)nn2c(C)nnc12", "CLASSIFICATION": "rule met"}
{"COMPOUND": "CCc1nn(CCOC)c2c1C(c1ccc(Cl)cc1)N(c1cc(C)c3nnc(C)n3c1)C2=O (centres unmarked)", "CLASSIFICATION": "rule met"}
{"COMPOUND": "COc1ccc(C2c3c(ccn3C)C(=O)N2c2cc(C)c(=O)n(C)c2)cc1 (centres unmarked)", "CLASSIFICATION": "rule not met"}
{"COMPOUND": "Cc1noc(C)c1-c1nc2c(n1C(C)C)C(c1ccc(Cl)cc1)N(c1cc(C)c(=O)n(C)c1)C2=O (centres unmarked)", "CLASSIFICATION": "rule not met"}
{"COMPOUND": "CON(C)C(=O)c1ccc2c(c1)N(c1ccc(Cl)cc1)CCn1nnc(C)c1-2", "CLASSIFICATION": "rule met"}
{"COMPOUND": "Cc1cc(N2C(=O)c3ccn(C)c3C2c2ccc(F)cc2)cn(C)c1=O (centres unmarked)", "CLASSIFICATION": "rule not met"}
